DETAILS: acidic group
Would you please tag the item yes when its pKa is 10 or above, and no when it is below?

Answered examples (4):
1) [NH3+]CCCCCCNC(=S)S	no
2) O=[N+]([O-])c1ccc2[nH]cnc2c1	yes
3) O=C(O)C12CCC(CC1)C2	no
4) OCc1cccc(CO)c1O	no

# input Please indicate if the recorded pKa for O=C(O)[C@@H]1O[C@H](Oc2cccc3[nH+]cccc23)[C@@H](O)[C@H](O)[C@H]1O meets or exceeds 10.
# output no

# input Would you say CC(C)O shows pKa at minimum 10?
# output yes

# input Hi, just wondering whether CC1(C)CCC(C(=O)O)=[N+]1[O-] shows pKa of 10 or higher.
# output no

# input # bool: pKa of COc1cccc(CN)c1O >= 10
# output yes

---

DETAILS: basic group
Class (by pKa) -- bottom (below 4), middle (4 to below 9), top (9 or more)

Solved entries (count: 6):
1) Nc1cccc2cc([N+](=O)[O-])ccc12	bottom
2) Nc1ccccc1Br	bottom
3) Cc1ccc(C)c(N)c1	middle
4) C=C(C)C(=O)OC(C)CN(C)C (stereo unspecified)	middle
5) O=C([O-])[C@@H]1CSCN1	middle
6) Brc1ccc(-c2ncc(-c3ccccc3)o2)cc1	bottom

# input Kindly identify the class of Nc1nc2ccccc2o1 .
# output bottom

# input Class? Entry: C[C@H](N)[C@H](C)[NH3+]
# output middle

---

Quick reference: pKa of the listed items.
DETAILS: acidic group
Lab note: record just the number, no unit beside it.

Consider the reported pKa for these compounds:
1. O=C(O)[C@H]1[C@@H]2C=C[C@H]1CC2	4.58
2. N#CC(C#N)=NNc1ccccc1C(F)(F)F	5
3. O=P(O)(C1CCCCC1)C1CCCCC1	3.47
4. [O-]c1cccc2c1-c1c(O)cccc1-2	11
5. COCCNC(=S)S	2.85
6. NC(=O)[C@H](CCC(=O)O)NC=O	4.3

Kindly review the next compound as well.
# input Write down pKa measured for item CCOC(=O)c1n[nH]c2c(c1=O)c(=O)n(C)c(=O)n2C
# output 7.32

---

DETAILS: acidic group
Examples of compounds with documented pKa follow.
Respond numerically, and do not add a unit to the figure.

1. OC[C@@H]1O[C@H]([n+]2ccc(NO)nc2O)[C@@H](O)[C@H]1O	2.26
2. O=C(NO)c1ccccn1	8.6
3. C[N+](C)(O)c1ccccc1	4.21

# input Identify measured pKa associated with O=C(O)Cn1c2ccccc2c2ccccc21
# output 3.55

# input Identify pKa associated with the compound O=N/C(=N/O)c1ccccc1
# output 4.9

# input Specify pKa for O=S(=O)([O-])c1ccc(O)cc1 and stop.
# output 8.91

# input Let me know recorded pKa for Cn1ncc2c(=O)[nH]cnc21 , thanks.
# output 9.26

# input Please supply the value of reported pKa for the item O=[PH](O)C([NH2+]Cc1cccc[nH+]1)c1ccccc1O (stereo not given)
# output 2.4

# input Using the record for CCN(CC)S(=O)(=O)c1ccccc1C(=O)O , state its measured pKa.
# output 2.96

# input Please give the documented pKa of CCCCNC(=O)NS(=O)(=O)c1ccc(C)cc1
# output 5.3

# input // Input: OC(c1ccncc1)(c1ccncc1)c1cccnc1 . Output its pKa only.
# output 11.9

# input Return the recorded pKa value; entry: Cc1ccc(C(=O)c2cc[nH]n2)cc1
# output 12

# input Quickly give me recorded pKa for Cc1cc(O)ccc1O
# output 10.1
